Target: δ opioid receptor (DOR) (Mus musculus)
Sequence (P32300 whole entry): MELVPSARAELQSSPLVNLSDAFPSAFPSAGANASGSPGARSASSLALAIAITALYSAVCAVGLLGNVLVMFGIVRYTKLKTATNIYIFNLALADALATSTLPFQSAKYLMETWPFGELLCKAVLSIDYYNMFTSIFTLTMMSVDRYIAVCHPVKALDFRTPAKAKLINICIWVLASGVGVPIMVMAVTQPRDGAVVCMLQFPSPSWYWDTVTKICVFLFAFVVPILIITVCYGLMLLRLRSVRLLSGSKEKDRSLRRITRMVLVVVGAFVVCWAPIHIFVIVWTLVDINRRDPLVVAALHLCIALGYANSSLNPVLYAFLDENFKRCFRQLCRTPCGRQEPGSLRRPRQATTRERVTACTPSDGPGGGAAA
Assay: [35S]-GTPγS functional assay in mDOR-CHO cells
Format: biochemical
Details: DOR EC50 (nM), mDOR-CHO
Observed property: EC50 (nM)

> print(dat)
                           molecular.string  unit.tag  experimental.value
1  O=C(N[C@H]1CC[C@@]2(O)[C@H]3Cc4ccc(O)c5c4[C@@]2(CCN3CC2CC2)[C@H]1O5)c1cccc2cc[nH]c12        nM                22.8
